These data points were gathered from PubChem BioAssay (Tox21).

Target: Estrogen receptor (Homo sapiens) (UniProt P03372)
Sequence (P03372 whole entry, looked up): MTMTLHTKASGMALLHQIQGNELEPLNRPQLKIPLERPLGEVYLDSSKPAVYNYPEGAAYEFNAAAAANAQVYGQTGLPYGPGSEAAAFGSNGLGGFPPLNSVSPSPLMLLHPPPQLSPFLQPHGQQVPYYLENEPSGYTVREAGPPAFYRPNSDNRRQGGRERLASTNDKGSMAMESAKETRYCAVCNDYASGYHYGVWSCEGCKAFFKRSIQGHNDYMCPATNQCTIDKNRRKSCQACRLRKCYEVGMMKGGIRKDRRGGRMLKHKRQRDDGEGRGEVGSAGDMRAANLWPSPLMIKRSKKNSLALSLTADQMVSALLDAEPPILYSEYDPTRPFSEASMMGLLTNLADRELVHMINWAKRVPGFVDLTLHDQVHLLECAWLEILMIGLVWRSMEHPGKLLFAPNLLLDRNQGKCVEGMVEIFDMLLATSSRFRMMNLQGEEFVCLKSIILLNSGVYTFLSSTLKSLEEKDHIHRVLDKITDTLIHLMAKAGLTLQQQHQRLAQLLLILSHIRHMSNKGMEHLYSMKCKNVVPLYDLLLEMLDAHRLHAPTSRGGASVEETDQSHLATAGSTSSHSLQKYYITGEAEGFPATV
Experiment: qHTS assay to identify small molecule antagonists of the estrogen receptor alpha (ER-alpha) signaling pathway using the BG1 cell line in the presence of 0.1 nM 17-beta-estradiol (AID 1259244); further: nearly all actives have a fitted effect of over 50% in size
Details: VM7Luc4E2 (BG1) ERE-luciferase, antagonist mode, 0.1 nM E2, 22 h; series mostly up to 92.4 µM
Records with an inconclusive call do not appear. Calls of active or inactive are those of the source. The call rests on the fitted dose curve; in most records, active means well fitted inhibition curve with a large enough effect in the repeat runs; inconclusive means weak or mixed curves; inactive means no such curve, though single readings can be large or run the other way.
MEASURED ENDPOINT: outcome

Example results:
COMPOUND	outcome
Oc1cccc(Cl)c1	inactive
COP(=O)(OC)OC(Br)C(Cl)(Cl)Br (configuration not stated)	inactive
C=C(C)C(=O)OCCCCOC(=O)C(=C)C	inactive
CCCN(CCC)c1c([N+](=O)[O-])cc(C(C)C)cc1[N+](=O)[O-]	inactive
CCCCC#N	inactive

For every record below, what is its outcome?
1. CCOP(=S)(OCC)SCSc1cc(Cl)ccc1Cl
2. CN(C1CCCCC1)C1CCCCC1

inactive
inactive

###

Target: Acetylcholinesterase (Homo sapiens) (UniProt P22303)
Sequence (P22303 whole entry, looked up): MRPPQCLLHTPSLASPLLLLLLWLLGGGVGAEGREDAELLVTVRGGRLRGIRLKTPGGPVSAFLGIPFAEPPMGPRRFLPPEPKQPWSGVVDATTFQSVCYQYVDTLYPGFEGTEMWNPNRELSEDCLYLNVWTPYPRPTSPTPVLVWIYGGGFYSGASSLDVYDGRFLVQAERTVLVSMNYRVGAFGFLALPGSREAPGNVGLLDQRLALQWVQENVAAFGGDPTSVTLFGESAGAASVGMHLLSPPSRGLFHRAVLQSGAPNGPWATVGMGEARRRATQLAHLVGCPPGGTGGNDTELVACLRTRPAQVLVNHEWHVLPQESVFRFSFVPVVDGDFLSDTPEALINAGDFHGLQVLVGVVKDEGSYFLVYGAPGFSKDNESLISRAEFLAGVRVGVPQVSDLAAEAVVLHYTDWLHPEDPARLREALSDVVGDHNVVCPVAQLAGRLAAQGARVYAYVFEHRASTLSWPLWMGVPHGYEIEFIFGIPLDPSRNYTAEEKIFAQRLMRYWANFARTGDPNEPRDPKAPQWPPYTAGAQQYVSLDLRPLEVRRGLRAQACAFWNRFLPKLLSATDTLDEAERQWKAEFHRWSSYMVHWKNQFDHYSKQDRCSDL
Test: Acetylcholinesterase (AChE) small molecule antagonists: colormetric cell-based qHTS assay (AID 1347395); further: nearly all actives have a fitted effect of over 30% in size
Conditions: SH-SY5Y cells AChE activity, colorimetric (Ellman); series mostly up to 115 µM
Results filed as inconclusive are left out. Active and inactive are the calls of the source. Calls follow the shape of the full dose curve.

COMPOUND	STUDY SYSTEM	outcome
N#CC(C#N)=Cc1ccc(O)c(O)c1	Acetylcholinesterase (Homo sapiens) (UniProt P22303)	inactive
CCCCC(CC)COC(=O)c1c(Br)c(Br)c(Br)c(Br)c1C(=O)OCC(CC)CCCC (centres undefined)	Acetylcholinesterase (Homo sapiens) (UniProt P22303)	inactive
CC(CC(C(N)=O)(c1ccccc1)c1ccccc1)N(C)C (centres undefined)	Acetylcholinesterase (Homo sapiens) (UniProt P22303)	inactive
COc1ccc(C(=O)c2c(C)n(CCN3CCOCC3)c3ccccc23)cc1	Acetylcholinesterase (Homo sapiens) (UniProt P22303)	inactive

###

Target: Cytochrome P450 1A2 (Homo sapiens) (UniProt P05177)
Sequence (P05177 whole entry, looked up): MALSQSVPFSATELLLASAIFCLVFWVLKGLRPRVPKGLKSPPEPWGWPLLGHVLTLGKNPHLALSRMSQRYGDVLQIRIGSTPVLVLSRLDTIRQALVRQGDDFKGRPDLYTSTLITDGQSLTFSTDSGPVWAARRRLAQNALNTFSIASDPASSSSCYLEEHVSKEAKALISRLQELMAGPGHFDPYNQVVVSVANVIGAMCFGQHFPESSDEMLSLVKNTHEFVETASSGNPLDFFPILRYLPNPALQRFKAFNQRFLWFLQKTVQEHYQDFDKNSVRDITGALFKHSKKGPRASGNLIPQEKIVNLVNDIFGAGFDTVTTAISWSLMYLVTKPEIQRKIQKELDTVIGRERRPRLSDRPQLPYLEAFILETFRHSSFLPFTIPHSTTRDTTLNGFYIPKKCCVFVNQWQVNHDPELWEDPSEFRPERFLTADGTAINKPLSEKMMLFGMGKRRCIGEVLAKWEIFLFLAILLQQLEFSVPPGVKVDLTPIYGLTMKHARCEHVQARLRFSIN
Assay: Cytochrome P450 Family 1 Subfamily A Member 2 (CYP1A2) small molecule antagonists: luciferase reporter qHTS assay (AID 1671199); further: nearly all actives have a fitted effect of over 50% in size
Conditions: P450-Glo CYP1A2 enzyme, luciferin luminescence, 1 h; series mostly up to 115 µM
Results filed as inconclusive are left out. Calls of active or inactive are those of the source. Calls come from the whole dose curve; as a rule, active = well fitted inhibition curve with a large enough effect in the repeat runs; inconclusive = weak or mixed curves; inactive = no such curve, though single readings can be large or run the other way.
Form entry, call: pick from active, inactive

Worked examples follow.
COMPOUND	STUDY SYSTEM	ANSWER LABEL
CC(Cc1ccccc1)NCc1ccccc1Cl (stereo not drawn)	Cytochrome P450 1A2 (Homo sapiens) (UniProt P05177)	active
Cc1nc2ccccc2c(=O)n1-c1ccccc1Cl	Cytochrome P450 1A2 (Homo sapiens) (UniProt P05177)	inactive
C#CC(O)(C=CCl)CC (stereo not drawn)	Cytochrome P450 1A2 (Homo sapiens) (UniProt P05177)	inactive
CC(CC(C(N)=O)(c1ccccc1)c1ccccc1)N(C)C (stereo not drawn)	Cytochrome P450 1A2 (Homo sapiens) (UniProt P05177)	inactive
CCCC[N+]1(C)[C@@H]2CC(OC(=O)[C@H](CO)c3ccccc3)C[C@H]1[C@@H]1O[C@@H]12 (stereo partly drawn)	Cytochrome P450 1A2 (Homo sapiens) (UniProt P05177)	inactive
CCC1(CC)C(=O)NC(=O)NC1=O	Cytochrome P450 1A2 (Homo sapiens) (UniProt P05177)	inactive

Please let me know the test result on file for `Cc1ccc2c(C)cccc2c1` .
inactive

Assay outcome for `Cc1nnc(-c2ccccc2)c(=O)n1N` : what was it?
active

Tell me the assay call for C[N+]1(CCF)[C@@H]2CC[C@H]1CC(OC(=O)C(O)(c1ccccc1)c1ccccc1)C2 (stereo partly drawn) please.
inactive

Entry `O=S(=O)(c1ccccc1)c1ccccc1` : call = ?
inactive

So what was the verdict on `C[C@H]1[C@@H]2Cc3ccc(O)cc3[C@@]1(C)CCN2C` in this test?
inactive
